B1: HEEH_KT_rd6_3632 (parent)
chain: DAEELIELVERALKEGREIILLGVRITSEEAGKWFIEWIRRFL

- Variants of: B1
- protocol.notes: folding stability dG (cDNA display proteolysis); higher = more stable
- test.settings: PBS, room temperature
Here, each record is paired with measured folding stability dG data.
Numeric only. Scale: kcal/mol

biopolymer.sequence | unit.text | experimental.value
DREELIELVERALKEGREIILLGVRITSEEAGKWFIEWIRRFL [A2R] | kcal/mol | 3.54
DAEELIELVERALKEGREIILRGVRITSEEAGKWFIEWIRRFL [L22R] | kcal/mol | 3.31
DAEELIELIERALKEGREIILLGVRITSEEAGKWFIEWIRRFL [V9I] | kcal/mol | 3.79
DAEELIELVERALKEGREIILLGVRITSEEAGKWEIEWIRRFL [F35E] | kcal/mol | 2.63
DAEELIELVERALKEGREIILLGVDITSEEAGKWFIEWIRRFL [R25D] | kcal/mol | 3.21
DAEELIELVERALKEGREIILLGVRITSEEAGKQFIEWIRRFL [W34Q] | kcal/mol | 3.64
DAEELIELVERALKEDREIILLGVRITSEEAGKWFIEWIRRFL [G16D] | kcal/mol | 3.07
DAEELIELVERALKEGRDIILLGVRITSEEAGKWFIEWIRRFL [E18D] | kcal/mol | 3.44
DAEELIELVERALKEGREIILLGVRITSEEAKKWFIEWIRRFL [G32K] | kcal/mol | 3.68
DAEELIYLVERALKEGREIILLGVRITSEEAGKWFIEWIRRFL [E7Y] | kcal/mol | 3.77

Data request: Return reported folding stability dG; argument: DAEELIELVERALKEGREIILLGVRITSEEAGKWFIEWIRRFI [L43I]
Data returned: 3.61

Data request: Repeat with DAEELIELVERALKEGREIILLGVRITSEEAGKWFIEWIRRQL [F42Q]
Data returned: 3.29

Data request: Repeat with DAEELIELVERALKEGREIILLGVRITSEEAGKWFIEWICRFL [R40C]
Data returned: 4.03

Data request: Repeat with DAENLIELVERALKEGREIILLGVRITSEEAGKWFIEWIRRFL [E4N]
Data returned: 3.78

Data request: Repeat with DAEELIELVERALKEGREIILLGVRITSEEAGKWTIEWIRRFL [F35T]
Data returned: 2.96

Data request: Repeat with DAEELIELVERALKEGREIILLGVRITSEEAGKWFDEWIRRFL [I36D]
Data returned: 3.04

Data request: Repeat with DAEELIELVERALKEGREIIFLGVRITSEEAGKWFIEWIRRFL [L21F]
Data returned: 3.49

Data request: Repeat with DAEELIELVERALKEGREIILLGVRITSEEAGKWFIMWIRRFL [E37M]
Data returned: 3.83

Data request: Repeat with DAEELIELVERALKEGRENILLGVRITSEEAGKWFIEWIRRFL [I19N]
Data returned: 2.86

Measured values drawn from the MegaScale stability set (Tsuboyama et al. 2023) for this set.
